All values here come from the Human Domainome abundance scans (Beltran et al. 2025).

B1: Lysine-specific demethylase 5C, residues 319 to 373; numbered along this chain, P41229 (parent)
chain: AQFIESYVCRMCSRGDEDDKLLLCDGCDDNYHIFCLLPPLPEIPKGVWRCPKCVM

- Variants of: B1
- ASSAY_PROCEDURE: abundance fitness (aPCA) (normalised: wild type 0, dead -1); higher = more abundant; growth selection in yeast, the domain comes from the species named
- CONDITIONS_USED: Homo sapiens
Would you mind labelling by abundance fitness? At or over -0.4 is yes (1), under is no (0).

1) R10V | yes (1)
2) V8A | yes (1)
3) C35S | no (0)
4) G26T | yes (1)
5) D28K | no (0)
6) Y31I | yes (1)
7) C27Y | no (0)
8) D16V | yes (1)
9) S6M | yes (1)
10) S6C | yes (1)
